Molecular target: T1, MUC1 peptide (15 aa+cystein, APDTRPAPGSTAPPAC) (human)
T1 construct: If the listing entry has only 15 residues, a C-terminal Cys must be added; Immobilized on the SPR chip; also called synthetic MUC1 peptide
T1 peptide: APDTRPAPGSTAPPAC
Assay: SPR, scFv 2-200 nM over immobilized MUC1 peptide, Chip 1 (47 RU)
Overview of reported Kd across a group of binders:
Measured Parameter: Kd (nM)

Binder: HT186-G2 scFv (scFv, scFv as VH-truncated CH1-linker-VL-truncated CL, made in the E. coli periplasm and purified by its His-tag; not shown: C-terminal His-tag used for purification and detection) scFv: RMQLVQSGAEVKKPGASVKLSCKASGYTFAGHYMHWVRQAPGRGLEWMGWIDPVTGGTKYAQNFQGWVTMTRDTSIRTAYMELSRLRSDDTAMYYCAREVTGDRGQFDKWGQGTLVTVASASTKGPSVKLEEGKFLEAHVQSVLTQPPSVSVAPGKTARITCGGNNIGSKSVHWYQQKPGQAPVLVIYYGSDRSSGIPERFSGSNSGNTATLTISRVEAGDEADYYCQVWDSSSDWVFGGGTKLTVLGQPKAAPSVTLFPPS
Measured Parameter: Kd
Reported Measurement: 1

Binder: HT186-B7 scFv (scFv, scFv as VH-truncated CH1-linker-VL-truncated CL, made in the E. coli periplasm and purified by its His-tag; not shown: C-terminal His-tag used for purification and detection) scFv: QMQLVQSGAEVKKPGASVKVSCKASGYTFTGHYMHWVRQAPGQGLEWMGWIDPVTGGTKYAQNFQGWVTMTRDTSIRTAYMELSRLRSDDTAMYYCAREVTGDRGQFDKWGQGTLVTVASASTKGPSVKLEEGEFSEARVQSVLTQPPSVSVAPGKTARITCGGNNIGSKSVHWYQQKPGQAPALVIYYGSYRPSGIPERFSGSNYGNTATLTIRRVEAGDEADYYCQVWDSSSDWVFGGGTKLTVLGQPKAAPSVTLFPPS
Measured Parameter: Kd
Reported Measurement: 1.3

Binder: HT186-D11 scFv (scFv, scFv as VH-truncated CH1-linker-VL-truncated CL, made in the E. coli periplasm and purified by its His-tag; not shown: C-terminal His-tag used for purification and detection) scFv: QMQLVQSEAELKKPGASVKVSCKASGYSFTGHYMHWVRQAPGQGLEWMGWIDPVTGGTKYAQNFQGWVTMTRDTSIRTAYLELSRLRSDDTAMYYCAREVTGDRGQFDKWGQGTLVTVASSSTKGPSVKLEEGEFSEARVQSVLTQPPSVSVAPGKTARITCGGNNIGSKSVHWYQQKPGQAPALVIYYGSNRPSGIPERFSGSNSGNTATLTISRVEAGDEADYYCQVWDSSSDWVFGGGTKLTVLGQPKAAPSVTLFPSS
Measured Parameter: Kd
Reported Measurement: 0.57

Binder: HT220-M-G8 scFv (scFv, scFv as VH-truncated CH1-linker-VL-truncated CL, made in the E. coli periplasm and purified by its His-tag; not shown: C-terminal His-tag used for purification and detection) scFv: QMQLVQSGAEVMKPGASVKVSCKASGYSFTGHYMHWVRHAPGQGLEWMGWIDPVTGSTKYAQNFQGWVTMTRDTSISTAYMELSRLRSDDTAMYYCAREVTGDRGQFDKWGQGTLVTVASASTKGPSVKLEEGEFSEARVQSVLTQPPSVSVAPGKTARITCGGNNIGSKSVHWYQQKPGQAPVLVIYYGSDRPSGIPERFSGSNTGNMATLTISRVEAGDEADYYCQVWDSSSDWVFGGGTKLTVLGQPKAAPSVTLFPPS
Measured Parameter: Kd
Reported Measurement: 4.4

Binder: HT220-M-D1 scFv (scFv, scFv as VH-truncated CH1-linker-VL-truncated CL, made in the E. coli periplasm and purified by its His-tag; not shown: C-terminal His-tag used for purification and detection) scFv: QMLLVQSGAEAKKPGASVKVSCKASGYTFTGHYMHWVRQAPGQGLEWMGWIDPVTGGTKYAQNFQGWVTMTRDTSIRTAYMELSRLRPDDTAMYYCAREVTGDRGQFDKWGQGTLVTVASASTKGPSVKLEEGEFSEARVQSVLTQPPSVSVVPGKTARIICGGNNIGSKSVHWYQQKPGQAPVLVIYNNSDRPSGIPERFSGSNSGNMATLTISRVEAGDESDYYCQVWDSSSDWVFGGGTRLTILGQSKAAPSVTLFPPS
Measured Parameter: Kd
Reported Measurement: 3.7

Binder: HT200-3A-C1 scFv (scFv, scFv as VH-truncated CH1-linker-VL-truncated CL, made in the E. coli periplasm and purified by its His-tag; not shown: C-terminal His-tag used for purification and detection) scFv: QMQLVQSGAEVKKPGASVKVSCKASGYTFTGHYMHWVRQAPGQGLEWMGWIDPVTGGTKYAQNFQGWVTMTRDTSIRTAYMELSRLRSDDTAMYYCAREVTGDRGQFDKWGQGTLVTVASASTKGPSAKLEEGEFSEARVQSVLTQPPSVSMAPGETARITCGGNNIGSKSVHWYQQKPGQAPVLVIYNDSDRPSGIPERFSGSNSGKTATLTISRVEAGDEADYYCQVWDSSIDWVFGGGTKLTVLGQPKAAPSVTLFPPS
Measured Parameter: Kd
Reported Measurement: 2.1
